- study_system: Serine/threonine-protein kinase D1 (Homo sapiens)
- test_method_notes: inhibitors of human PKD1 kinase, biochemical, fluorescence polarization (AID 797)
- condition_info: PKD1 kinase fluorescence polarization assay; concentration not given here
Hit rate of the full screen: of about 200,000 compounds, about 110 (0.055%) were called active. Rule as the data show it: active = inhibition above about 50%; inactive = the rest. Only a selection was taken, and actives are over-represented in it overall.
Just give me one of these, please: 1.0 (active), 0.0 (inactive)

Q: Assay result, entry NC(=O)c1ncc(C(F)(F)F)cc1Oc1ccc(F)cc1 — outcome?
A: 0.0

Q: # repeat for CCN1/C(=C\c2ccc3ccccc3[n+]2CC)Sc2cc(C)ccc21
A: 0.0

Q: Okay, and O=C(CN1CCOCC1)Nc1c(Cl)cc(Cl)cc1Cl ?
A: 0.0

Q: And what about the compound CC1(C)CC(=O)C2=C(C1)N=C1SCCC(=O)N1C2c1ccc(C(F)(F)F)cc1 (configuration not stated) ?
A: 0.0

Q: Entry O=C(NCCCN1CCOCC1)c1ccc(N2CCCC2)c([N+](=O)[O-])c1 please
A: 0.0

Q: Could you do the same for C=CCC(C(=O)c1ccccc1)[N+](C)(C)CC=C (configuration not stated) , please?
A: 0.0

Q: Quick one: CCCn1c(NC(=O)C23CC4CC(CC(O)(C4)C2)C3)nc2ccccc21
A: 0.0

Q: // next record CCc1cc(C(N)=O)c(NC(=O)c2ccc(OC)cc2)s1
A: 0.0

Q: What would you report for Cc1cccc(/C(N)=N/OC(=O)c2ccccc2Cl)c1 ?
A: 0.0

Q: Query C/C(=N\OCC(=O)Nc1ccc(Br)cc1)c1cccs1 next
A: 0.0

Q: Check CN1C(=O)/C(=C\c2ccc(-c3ccccc3)o2)SC1=S too.
A: 0.0

Q: Now consider Cc1ccc(NC(=O)C2CCCN(S(=O)(=O)c3c(C)noc3C)C2)c(C)c1 (configuration not stated) and answer again.
A: 1.0

Q: Item: C=CCn1cc(-c2cccc(C(F)(F)F)c2)cc(C#N)c1=O
A: 0.0

Q: Now the same for COc1cccc2cc(/C(C)=N/NC(=O)c3ccco3)oc12
A: 0.0

Q: Try COc1c(C)cc(C(=O)C2CCCN(S(=O)(=O)c3c(C)noc3C)C2)cc1C (configuration not stated) next.
A: 0.0

Q: For O=C(O)c1cccc(N2C(=O)Nc3ccccc3N2O)c1 then?
A: 0.0

Q: Param item: COCCSc1nnc(NC(=O)c2cc(OC)c(OC)cc2[N+](=O)[O-])s1
A: 0.0

Q: Same thing, different compound: Cc1cn(C)c(=O)n(C)c1=O
A: 0.0

Q: Also, Cc1ccc(-c2c(C)n([O-])c3c([n+]2=O)CCC3)cc1 please.
A: 0.0

Q: Now this one: Cc1nnsc1C(=O)Nc1cccc(Cl)c1C
A: 0.0

Q: Also check Brc1c(CSc2nncc3ccccc23)nc2ccccn12
A: 0.0

Q: Please give the result for CCn1c2ccccc2c2cc(NC(=O)COC(=O)c3ccccc3Br)ccc21 too.
A: 0.0

Q: Likewise for COc1cccc(NC(=O)C(Sc2nnnn2C)c2ccccc2)c1 (configuration not stated) ?
A: 0.0

Q: Another compound: CN(CCc1cn[nH]c1)C(=O)CC1C(=O)NCCN1Cc1cccc(Oc2ccccc2)c1 (configuration not stated)
A: 0.0

Q: Item: COc1ccc(NC(=O)CC2C(=O)OCC3CCCCN32)cc1Cl (configuration not stated)
A: 0.0

Q: Moving on to the next compound: CCc1nnc(NC(=O)CSc2nc(SC)ns2)s1
A: 0.0

Q: Continue with CN1CCN(c2ccc(S(=O)(=O)N3CCCCC3)cc2NC(=O)Cc2ccccc2F)CC1
A: 0.0
